// values below are reported GI50
- System: 786-0
- TEST_NAME: NCI tumour cell line growth inhibition, 48 h
Activity calls are given as the source filed them. No stated cut-off is given here; in the data, active = GI50 up to about 1.1 µM and inactive = higher.

Examples with answers:
MOLECULE	SYSTEM_NAME	GI50
CC(=O)CC(=O)N(CCN(C(=O)CC(C)=O)c1ccccc1)c1ccccc1	786-0	> 100 µM (inactive)
[N-]=[N+]=NC(CI)c1cn([C@H]2C[C@H](O)[C@@H](CO)O2)c(=O)[nH]c1=O (stereo not given in full)	786-0	63.2 µM (inactive)
O=C(OCC(Cl)(Cl)Cl)O[C@@H]1CCCC1(c1ccccc1)c1ccccc1	786-0	> 100 µM (inactive)
O=c1cnnc2sc(=S)[nH]n12	786-0	22.5 µM (inactive)
CCCCNC(=O)OCCN=C1c2ccccc2C(Br)C(Br)c2ccccc21 (stereo not given)	786-0	14.6 µM (inactive)

*Q* Complete the entry with GI50 for O=C(NP(=O)(N1CC1)N1CC1)c1cc(I)ccc1I
*A* 21.9 µM (inactive)

*Q* Complete the entry with GI50 for c1ccc(-c2c(-c3[nH]c4ccccc4c3-c3ccccc3)[nH]c3ccccc23)cc1
*A* 2.07 µM (inactive)

*Q* Complete the entry with GI50 for CO[C@@H](c1ccccc1)[C@H](O)[C@](O)(c1ccccc1)P(=O)(OC)OC
*A* > 100 µM (inactive)
